Recorded values, source patent US20230331852A1.

Biological target: T1, Fc-CLEC1 labelled with Alexa Fluor 488 (human, Alexa Fluor 488 label (sites not given))
T1 construct: also called Fc-CLEC1-A488; Alexa488-Fc-Clec-1
T1 chain: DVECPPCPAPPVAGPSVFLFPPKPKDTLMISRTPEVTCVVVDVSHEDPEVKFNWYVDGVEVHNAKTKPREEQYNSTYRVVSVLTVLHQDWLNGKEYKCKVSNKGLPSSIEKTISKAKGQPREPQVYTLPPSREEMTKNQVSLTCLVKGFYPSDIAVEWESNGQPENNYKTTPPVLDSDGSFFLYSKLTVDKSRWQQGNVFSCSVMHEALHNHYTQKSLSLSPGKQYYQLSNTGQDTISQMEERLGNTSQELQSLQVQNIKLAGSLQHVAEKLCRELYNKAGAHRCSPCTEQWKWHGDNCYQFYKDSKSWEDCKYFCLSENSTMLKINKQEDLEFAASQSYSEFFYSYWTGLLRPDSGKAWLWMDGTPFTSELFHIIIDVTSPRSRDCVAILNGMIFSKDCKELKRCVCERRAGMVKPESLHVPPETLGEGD
Assay: FACS competition: blocks Fc-CLEC1-A488 (10 nM) binding to CLEC-1 ligand on permeabilised Raji cells; read-out Mean
measurement.kind: IC50 (µg/mL)
Response body: numeric value in µg/mL, unit text excluded.

murine anti-hCLEC1 antibody 14H9-F3 (antibody, V domains shown, Mouse hybridoma antibody) VH: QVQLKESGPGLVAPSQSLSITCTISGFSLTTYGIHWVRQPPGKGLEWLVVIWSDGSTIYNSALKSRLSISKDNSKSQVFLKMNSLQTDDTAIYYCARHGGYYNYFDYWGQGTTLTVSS VL: DIQMNQSPSSLSASLGDTITITCHASQNINVWLSWYQQKPGNIPKLLIYKASNLHTGVPSRFSGSGSGTTFTLTIDSLQPEDIATYYCQQGQSYWTFGGGTKLEIK ... 0.84

Input line: For the binder murine anti-hCLEC1 antibody 10F4-H2 (antibody, V domains shown, Mouse hybridoma antibody) VH: QVQLQQSGTELARPGASVKMSCKASGYIFTDYTIHWVKQRPGQGLEWVGYINPSSGYTNYNQKFKAKATLTADKSSSTAYMQLSSLTSEDSAVYYCTPMFRRSYFDYWGQGTTLTVSS VL: DAVMTQTPLSLPVSLGDQASISCRSSQSLENSNGNTYLNWYLQKPGQSPQLLIYRVSNRFSGVLDRFSGSGSGTDFTLKISRVEAEDLGVYFCLQVTHVPYTFGGGTKLEIK , give its measured IC50 value.
Output line: 2.1
